assay: qHTS assay to identify small molecule antagonists of the progesterone receptor (PR) signaling pathway - cell viability counter screen (AID 1346798); conditions: PR-UAS-bla HEK293T viability, CellTiter-Glo luminescence, 16 h; series mostly up to 92.4 µM;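 also: HEK293T PR-UAS-bla cells stimulated with the agonist R5020; nearly all actives have a fitted effect of over 50% in size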
Inconclusive results are not listed. Activity calls are given as the source filed them. Calls follow the shape of the dose curve; as a rule, active = well fitted cell-killing curve with a large enough effect in the repeat runs; inconclusive = weak or mixed curves, or effect the other way; inactive = no such curve, though single readings can be large or run the other way.
Your answer must be one of the following: TRUE = active, FALSE = inactive

N#Cc1ccc(N(CC(N)=O)CC(F)(F)F)cc1C(F)(F)F = FALSE
CC(C)(C)c1ccc(OP(=O)(Oc2ccccc2)Oc2ccccc2)cc1 = FALSE
N#CSCc1ccccc1 = FALSE
O=C(Cl)c1ccccc1F = FALSE
CCCCC(CC)COC(=O)OOC(C)(C)C (stereo not given) = FALSE

## Task Recorded test call requested for CC(=O)C(Cl)C(=O)N(C)C (stereo not given)
## Result FALSE

## Task Recorded test call requested for COc1ccc2c(c1OC)C(=O)O[C@@H]2[C@H]1c2cc3c(cc2CCN1C)OCO3
## Result FALSE

## Task Recorded test call requested for CC1CN1 (stereo not given)
## Result FALSE
